Assay: Pharmacokinetic study of DPTM in rats after i.v., i.m. and p.o. administration (HPLC-MS/MS, non-compartmental)
Assay type: in vivo
Settings: Sprague-Dawley, plasma, im; rat, 75 mg/kg, median (min–max)
recorded metric: Tmax (min)
Numbers only here, please. The scale is min.

# input Could you please provide reported Tmax for C=CC1(C)CC(OC(=O)CSc2nc(N)cc(N)n2)C2(C)C(C)CCC3(CCC(=O)C32)C(C)C1O (stereo not shown) ? Thanks!
# output 30

###

Assay: Pharmacokinetic study of DPTM in rats after i.v., i.m. and p.o. administration (HPLC-MS/MS, non-compartmental)
Type: in vivo
Details: Sprague-Dawley, rat, plasma, po, 75 mg/kg, p.o., 75 mg/kg, read-out: t1/2 (converted)
recorded metric: half-life (h)
Numbers only here, please. The scale is h.

# input Could you please provide reported half-life for C=CC1(C)CC(OC(=O)CSc2nc(N)cc(N)n2)C2(C)C(C)CCC3(CCC(=O)C32)C(C)C1O (stereo not shown) ? Thanks!
# output 4.7

###

Assay: Pharmacokinetic study of DPTM in rats after i.v., i.m. and p.o. administration (HPLC-MS/MS, non-compartmental)
Format: in vivo
Conditions: Sprague-Dawley, rat, plasma, iv, 10 mg/kg, rat serum, i.v., 10 mg/kg; read-out: Cmax
recorded metric: Cmax (µg/mL)
Numbers only here, please. The scale is µg/mL.

# input Could you please provide reported Cmax for C=CC1(C)CC(OC(=O)CSc2nc(N)cc(N)n2)C2(C)C(C)CCC3(CCC(=O)C32)C(C)C1O (stereo not shown) ? Thanks!
# output 7.5

###

Test: Pharmacokinetic study of DPTM in rats after i.v., i.m. and p.o. administration (HPLC-MS/MS, non-compartmental)
Type: in vivo
Settings: Sprague-Dawley, plasma, im; rat, 10 mg/kg, median (min–max)
recorded metric: Tmax (min)
Numbers only here, please. The scale is min.

# input Could you please provide reported Tmax for C=CC1(C)CC(OC(=O)CSc2nc(N)cc(N)n2)C2(C)C(C)CCC3(CCC(=O)C32)C(C)C1O (stereo not shown) [DPTM] ? Thanks!
# output 30

###

Experiment: Pharmacokinetic study of DPTM in rats after i.v., i.m. and p.o. administration (HPLC-MS/MS, non-compartmental)
Type: in vivo
Conditions: Sprague-Dawley, rat, plasma, im, range over 10, 25 and doses, read-out: maximum concentration (Cmax) of drug in serum
recorded metric: Cmax

# input Could you please provide reported Cmax for C=CC1(C)CC(OC(=O)CSc2nc(N)cc(N)n2)C2(C)C(C)CCC3(CCC(=O)C32)C(C)C1O (stereo not shown) [DPTM] ? Thanks!
# output 470 to 1830 ng/mL

###

Test: Pharmacokinetic study of DPTM in rats after i.v., i.m. and p.o. administration (HPLC-MS/MS, non-compartmental)
Type: in vivo
Conditions: Sprague-Dawley, plasma, im; rat, i.m., 25 mg/kg; read-out: MRT0–t
recorded metric: MRT last
Write the quantity with the unit trailing the number.

# input Could you please provide reported MRT last for C=CC1(C)CC(OC(=O)CSc2nc(N)cc(N)n2)C2(C)C(C)CCC3(CCC(=O)C32)C(C)C1O (stereo not shown) ? Thanks!
# output 4.8 h

###

Assay: Pharmacokinetic study of DPTM in rats after i.v., i.m. and p.o. administration (HPLC-MS/MS, non-compartmental)
Format: in vivo
Details: Sprague-Dawley, rat, plasma, iv, 75 mg/kg, i.v., range over 10, 25 and 75 mg/kg doses, read-out: half-life (t1/2)
recorded metric: half-life

# input Could you please provide reported half-life for C=CC1(C)CC(OC(=O)CSc2nc(N)cc(N)n2)C2(C)C(C)CCC3(CCC(=O)C32)C(C)C1O (stereo not shown) ? Thanks!
# output 1.7 to 1.86 h

src = paper PMC6413085
